target: Intestinal-type alkaline phosphatase (Homo sapiens); experiment: human IAP inhibitors, confirmation, biochemical, luminescence, single concentration, uHTS hits (AID 434927); details: purified human IAP, CDP-Star luminescence, 30 min; at 8.3 µM;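 further: plate controls were DMSO wells with enzyme for no effect and wells lacking enzyme for full effect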
Activity calls are given as the source filed them.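 How the source made its calls: active means inhibition above about 23% in any of six single-dose repeats (limit read from the data); inactive means the rest.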
Outcome codes: t (active), f (inactive)

> print(dat)
                                    compound  class.label
 1  CC1Cn2c(nnc2C23CC4CC(CC(C4)C2)C3)S1 (stereo unspecified)            t
 2  COc1ccccc1C1CN(c2ccccc2)N=C1c1cccs1 (stereo unspecified)            f
 3  CC(C)Oc1ccc(CCC(=O)NNC(=S)NCc2ccccc2)cc1            t
 4  COc1ccc(CN2CCC(n3nccc3NC(=O)CCCc3ccccc3)CC2)cc1C            f
 5  CC(=O)c1ccc(NC(=O)C2CCCN2S(=O)(=O)c2cccs2)cc1 (stereo unspecified)            f
 6    Cc1cc(C)n(C(=O)C23CC4CC(CC(C4)C2)C3)n1            f
 7  CC[n+]1c(/C=C/c2c[nH]c3ccccc23)ccc2cc(C)ccc21            f
 8  CCCCOc1cccc(C2/C(=C(\O)c3ccc4c(c3)OCCO4)C(=O)C(=O)N2CCN2CCOCC2)c1 (stereo unspecified)            f
 9   CC(C)C(=O)NC(=S)Nc1ccccc1C(=O)Nc1ccccc1            f
10  COC(=O)c1ccccc1-c1c2ccc(=N)cc-2oc2cc(N)ccc12            t
11        CCOc1cccc(OCCOCCOc2ccccc2C(C)=O)c1            f

----------
biological target: Intestinal-type alkaline phosphatase (Homo sapiens); assay: human IAP inhibitors, confirmation, biochemical, luminescence, single concentration, uHTS hits (AID 434927); conditions: purified human IAP, CDP-Star luminescence, 30 min; at 8.3 µM; active compounds read high;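 further: plate controls were DMSO wells with enzyme for no effect and wells lacking enzyme for full effect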
RECORDED METRIC: inhibition (%)

> print(dat)
                                    compound  recorded.metric  readout.value
 1  Nc1ccc(-c2c3ccc(=O)cc-3oc3cc(O)ccc23)cc1C(=O)O       inhibition           64.5
 2  O=C(N/N=C/c1c(F)cccc1Cl)c1cc(C2CC2)[nH]n1       inhibition           37.7
 3          CC(C)CCNc1ncnc2c1nnn2Cc1ccccc1Cl       inhibition           40.2
 4     CCOc1ccc(CC(=O)NNC(=S)NCCc2ccccc2)cc1       inhibition           77.5
 5  Cc1ccc(S(=O)(=O)N(CC(=O)Nc2ccc(C)cc2C)C(=O)N2CCN(C)CC2)cc1       inhibition          -55.4
 6  Cc1cc(C)cc(CC(Cc2nc3ccccc3[nH]2)c2nc3ccccc3[nH]2)c1 (stereo unspecified)       inhibition           -323
 7  COc1cc(NC(=O)NCC2CCN(Cc3ccccc3Cl)CC2)cc(OC)c1OC       inhibition           -142
 8           Oc1ccc(N=Nc2c(O)ccc3ccccc23)cc1       inhibition          -91.9
 9  Cc1cccn2c(=O)c3cc(C(=O)NC4CCCC4)c(=N)n(C4CCCCC4)c3nc12       inhibition           -122
10         O=C(NC1CCCCCC1)c1ccc(-n2cnnc2)cc1       inhibition          -58.8
11  COC(=O)CN1C(=O)C(O)(CC(=O)c2ccc(C)cc2)c2ccccc21 (stereo unspecified)       inhibition           45.9
